Biological target: T1, GST-β3cyto (GST fusion protein of the integrin β3 cytoplasmic domain) (UniProt O54890)
T1 sequence: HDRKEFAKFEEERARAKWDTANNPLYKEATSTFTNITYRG
Experiment: phage colonies recovered from β3-GST-coated wells divided by those from GST wells
Known β3/GST Ratio of a selection of binders

| binder | β3/GST Ratio |
| --- | --- |
| CLRQSYSYNC [phage displaying … (SEQ ID NO:104)] | 2.4 |
| YEWWYWSWA [phage displaying … (SEQ ID NO:98)] | 2.2 |
| CNLSSEQC [phage displaying CNLSSEQC (SEQ ID NO:103)] | 2.7 |
